tested on: HCV genotype 1b replicon in Huh 7 cells; assay: HCV replicon assay (1b_Huh-Luc/Neo-ET cell line, luciferase readout); type: cell-based; conditions: Hepatitis C virus, Huh-7; HCV 1b replicon; read-out: Inhibition of HCV genotype 1b
measuredParameter: EC50

Examples with answers:
# returns recorded EC50 (system: HCV genotype 1b replicon in Huh 7 cells) for `COC(=O)N[C@@H](C(=O)N1CCC[C@H]1C(=O)NCc1ccc(-c2ccc3cc(-c4cnc([C@@H]5CCCN5C(=O)[C@H](NC(=O)OC)c5ccccc5)[nH]4)ccc3n2)cc1)c1ccccc1`
< 1 nM

Would you kindly repeat that for `COC(=O)N[C@H](C(=O)N1CCC[C@H]1c1ncc(-c2ccc3cc(-c4ccc5nc([C@@H]6CCCN6C(=O)[C@@H](NC(=O)OC)[C@@H](C)OC)[nH]c5n4)ccc3c2)[nH]1)[C@@H](C)OC` ?
< 1 nM

Others:
Field: EC50 (HCV genotype 1b replicon in Huh 7 cells). Entry: `COC(=O)N[C@@H](C(=O)N1CCC[C@H]1CNC(=O)c1cnc2cc(-c3ccc4c(ccc5nc([C@@H]6CCCN6C(=O)[C@H](NC(=O)OC)c6ccccc6)[nH]c54)c3)ccc2c1)c1ccccc1`
< 1 nM

Request: `COC(=O)N[C@@H](C(=O)N1CCC[C@H]1c1ncc(-c2ccc(-c3ccc4cc(-c5cnc([C@@H]6CCCN6C(=O)[C@H](NC(=O)OC6CCOCC6)c6ccccc6)[nH]5)ccc4n3)cc2F)[nH]1)c1ccccc1`
< 1 nM

Same question, `COC(=O)N[C@@H](C)C(=O)N1CCC[C@H]1C(=O)Nc1ccc(-c2ccc3cc(-c4cnc([C@@H]5CCCN5C(=O)[C@H](C)NC(=O)OC)[nH]4)ccc3c2)cc1` this time
1 to 9.9 nM
